The reported numbers originate from paper PMC10812785.

ASSAY SYSTEM: T1, LptAm, a monomeric functional (truncated) variant of LptA (E. coli, UniProt P0ADV1 28-159)
T1 construct: LptA, periplasmic component of the LPS transport (Lpt) complex, E. coli, residues 28-159; no removal of the His tag is described; source: E. coli BL21, purified (Ni-NTA, size-exclusion chromatography)
T1 sequence (looked up): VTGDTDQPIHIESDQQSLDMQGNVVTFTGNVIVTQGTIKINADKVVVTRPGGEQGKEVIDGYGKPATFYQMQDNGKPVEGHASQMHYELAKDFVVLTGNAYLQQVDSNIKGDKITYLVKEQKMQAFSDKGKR
METHOD NOTES: ITC; 250 uM peptide in the syringe titrated into 25 uM LptAm in the cell; 50 mM sodium phosphate, 150 mM NaCl, pH 7.0, 25 °C; single site binding model; apparent Kd
TEST SETTINGS: both partners purified
PROPERTY NAME: Kd (nM)
Kindly answer with a numeric value in nM, unit omitted.

Requested field: Kd. Item: PIIYCNRRTGKCQRM (thanatin, Podisus maculiventris (spined soldier bug), the C-terminal 15 residues of the 21-residue peptide (P7-M21 of thanatin); also called 15-residue thanatin peptide; source: synthetic peptide, bought: GLBiochem (Shanghai, China)) [PM15, 15-residue N-terminal truncated analog of thanatin]
600
